Experiment: Cmax in Nu/Nu Balb Harlan mouse at 10 mg/kg, po
Assay type: ADME, organism-based
Parameters: dose 10 mg/kg, route oral
Settings: in vivo
Recorded Metric: Cmax (nM)
Answers are plain numbers, in nM.

1. CN1CCN(c2ccc(OC(F)(F)F)c(Nc3nccc(-c4cc(C(N)=O)cn4C)n3)c2)CC1.O=C(O)C(F)(F)F ... 760

Moving on to another molecule below.
Can you look up the measured Cmax of `CN1CCN(c2ccc(OC(F)(F)F)c(Nc3nccc(-c4cc5c(n4C)CCNC5=O)n3)c2)CC1` for me?
760

* * *

Assay: Clearance in Nu/Nu Balb Harlan mouse at 10 mg/kg, iv
Type: ADME, organism-based
Design: dose 10 mg/kg, route intravenous
Conditions: in vivo
Answer each item with its documented clearance.
Respond with a number, then the unit of measure.

Field: clearance. Fill in for each record below.
1. CN1CCN(c2ccc(OC(F)(F)F)c(Nc3nccc(-c4cc5c(n4C)CCNC5=O)n3)c2)CC1
2. CN1CCN(c2ccc(OC(F)(F)F)c(Nc3nccc(-c4cc(C(N)=O)cn4C)n3)c2)CC1.O=C(O)C(F)(F)F

1: 66.4 mL/min/kg; 2: 74.7 mL/min/kg

* * *

Molecular target: Protein-tyrosine kinase 6 (Homo sapiens)
Sequence (Q13882 whole entry): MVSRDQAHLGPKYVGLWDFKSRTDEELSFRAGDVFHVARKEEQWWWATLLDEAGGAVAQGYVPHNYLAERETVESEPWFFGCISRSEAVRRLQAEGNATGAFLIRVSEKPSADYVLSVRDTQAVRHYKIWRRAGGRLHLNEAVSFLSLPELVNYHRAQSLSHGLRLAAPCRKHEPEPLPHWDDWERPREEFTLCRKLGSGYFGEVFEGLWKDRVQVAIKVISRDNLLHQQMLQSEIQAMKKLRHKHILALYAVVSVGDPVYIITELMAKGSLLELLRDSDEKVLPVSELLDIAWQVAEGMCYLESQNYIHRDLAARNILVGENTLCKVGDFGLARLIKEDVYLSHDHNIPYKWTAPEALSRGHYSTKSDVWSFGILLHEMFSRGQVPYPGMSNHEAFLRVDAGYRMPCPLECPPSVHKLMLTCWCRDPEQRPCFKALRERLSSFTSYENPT
Recorded Metric: IC50

Given the entry `CN1CCN(c2ccc(OC(F)(F)F)c(Nc3nccc(-c4cc5c(n4C)CCNC5=O)n3)c2)CC1` , report its measured IC50.
> 10 µM

* * *

Assay: Intrinsic clearance in rat hepatocytes at 1 uM
Type: ADME, cell-based, Liver, Hepatocyte
Conditions: read-out: CLH
Recorded Metric: CLint scaled at 1 µM (mL/min/kg)
Answers are plain numbers, in mL/min/kg.

Value lookup for CLint scaled at 1 µM; key = `CN1CCN(c2ccc(OC(F)(F)F)c(Nc3nccc(-c4cc(C(N)=O)cn4C)n3)c2)CC1`
408

* * *

Assay: Half life in Nu/Nu Balb Harlan mouse at 10 mg/kg, iv
Format: ADME, organism-based
Design: dose 10 mg/kg, route intravenous
Conditions: in vivo
Recorded Metric: half-life (min)
One number for each entry, in min.

1) CN1CCN(c2ccc(OC(F)(F)F)c(Nc3nccc(-c4cc5c(n4C)CCNC5=O)n3)c2)CC1 ... 31.2

What does the data say about its half-life? Entry: `CN1CCN(c2ccc(OC(F)(F)F)c(Nc3nccc(-c4cc(C(N)=O)cn4C)n3)c2)CC1.O=C(O)C(F)(F)F`
39

* * *

Assay: AUC (0 to infinity) in Nu/Nu Balb Harlan mouse at 10 mg/kg, po
Format: ADME, organism-based
Design: time infinity, dose 10 mg/kg, route oral
Conditions: plasma
Recorded Metric: AUC(0-inf) (µM·h)
Answers are plain numbers, in µM·h.

1) CN1CCN(c2ccc(OC(F)(F)F)c(Nc3nccc(-c4cc5c(n4C)CCNC5=O)n3)c2)CC1 ... 2.38

Need AUC(0-inf) of `CN1CCN(c2ccc(OC(F)(F)F)c(Nc3nccc(-c4cc(C(N)=O)cn4C)n3)c2)CC1.O=C(O)C(F)(F)F` , thanks.
1.92

* * *

Kindly state IC50 for each of the entries shown.
Protein target, amino acids: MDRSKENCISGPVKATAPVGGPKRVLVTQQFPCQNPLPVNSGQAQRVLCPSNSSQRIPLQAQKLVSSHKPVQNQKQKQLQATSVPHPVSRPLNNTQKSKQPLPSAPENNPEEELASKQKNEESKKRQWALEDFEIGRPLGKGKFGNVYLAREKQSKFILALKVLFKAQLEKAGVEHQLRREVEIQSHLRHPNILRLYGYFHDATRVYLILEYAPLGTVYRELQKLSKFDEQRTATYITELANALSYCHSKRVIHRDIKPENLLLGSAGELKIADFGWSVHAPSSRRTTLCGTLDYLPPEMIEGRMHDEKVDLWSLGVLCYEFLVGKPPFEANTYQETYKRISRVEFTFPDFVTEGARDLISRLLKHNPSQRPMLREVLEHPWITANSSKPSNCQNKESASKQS

The examples below pair each entry with its known result.
1) CN1CCN(c2ccc(OC(F)(F)F)c(Nc3nccc(-c4cc(C(N)=O)cn4CCO)n3)c2)CC1 ... > 10 µM
2) Cn1cc(C(N)=O)cc1-c1ccnc(Nc2cc(N3CCN(C(=O)OC(C)(C)C)CC3)ccc2OC(F)(F)F)n1 ... > 10 µM
3) CN1CCN(c2ccc(OC(F)(F)F)c(Nc3nccc(-c4cc5c(n4C)CCN(C(=O)OC(C)(C)C)C5=O)n3)c2)CC1 ... > 10 µM
4) Nc1nccc(-c2cc3c([nH]2)CCNC3=O)n1 ... > 10 µM

I would be grateful if you could share the reported IC50 for `Cn1cc(C(N)=O)cc1-c1ccnc(Nc2cc(N3CCNCC3)ccc2OC(F)(F)F)n1` .
> 10 µM

* * *

As a worked illustration, we turn to IC50 data collected for Serine/threonine-protein kinase PLK3 (Homo sapiens, UniProt Q9H4B4).

Some solved cases for reference:
1. CN1CCN(c2ccc(OC(F)(F)F)c(Nc3nccc(-c4cc(C(N)=O)cn4CCO)n3)c2)CC1 ... > 10 µM
2. CN1CCN(c2ccc(OC(F)(F)F)c(Nc3nccc(-c4cc(C(N)=O)cn4C)n3)c2)CC1 ... > 10 µM

Look at this compound and give its reported IC50. `CN1CCN(c2ccc(OC(F)(F)F)c(Nc3nccc(-c4cc5c(n4CCO)CCNC5=O)n3)c2)CC1`
> 10 µM

* * *

Target: RAC-alpha serine/threonine-protein kinase (Homo sapiens, UniProt P31749)
Sequence (P31749 whole entry): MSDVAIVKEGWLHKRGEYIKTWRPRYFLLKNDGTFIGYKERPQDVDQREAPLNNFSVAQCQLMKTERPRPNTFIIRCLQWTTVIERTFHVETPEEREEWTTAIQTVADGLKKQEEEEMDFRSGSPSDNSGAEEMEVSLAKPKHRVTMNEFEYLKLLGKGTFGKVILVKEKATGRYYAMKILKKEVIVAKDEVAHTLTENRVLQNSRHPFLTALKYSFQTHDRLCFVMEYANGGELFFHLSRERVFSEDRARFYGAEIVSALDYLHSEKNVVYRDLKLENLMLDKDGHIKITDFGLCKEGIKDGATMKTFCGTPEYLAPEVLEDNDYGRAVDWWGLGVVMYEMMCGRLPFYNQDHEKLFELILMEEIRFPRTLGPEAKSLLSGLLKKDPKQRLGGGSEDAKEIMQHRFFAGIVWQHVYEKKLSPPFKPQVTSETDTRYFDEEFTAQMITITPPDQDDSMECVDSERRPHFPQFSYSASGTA
Assay: Inhibition of AKT1
pIC50: −log10 of the molar value.
Recorded Metric: pIC50

For the molecule `CN1CCN(c2ccc(OC(F)(F)F)c(Nc3nccc(-c4cc(C(N)=O)cn4C)n3)c2)CC1` , what pIC50 is on record?
< 5.00

* * *

Biological target: Insulin-like growth factor 1 receptor (Homo sapiens, UniProt P08069)
Sequence (P08069 31-736 limits assumed): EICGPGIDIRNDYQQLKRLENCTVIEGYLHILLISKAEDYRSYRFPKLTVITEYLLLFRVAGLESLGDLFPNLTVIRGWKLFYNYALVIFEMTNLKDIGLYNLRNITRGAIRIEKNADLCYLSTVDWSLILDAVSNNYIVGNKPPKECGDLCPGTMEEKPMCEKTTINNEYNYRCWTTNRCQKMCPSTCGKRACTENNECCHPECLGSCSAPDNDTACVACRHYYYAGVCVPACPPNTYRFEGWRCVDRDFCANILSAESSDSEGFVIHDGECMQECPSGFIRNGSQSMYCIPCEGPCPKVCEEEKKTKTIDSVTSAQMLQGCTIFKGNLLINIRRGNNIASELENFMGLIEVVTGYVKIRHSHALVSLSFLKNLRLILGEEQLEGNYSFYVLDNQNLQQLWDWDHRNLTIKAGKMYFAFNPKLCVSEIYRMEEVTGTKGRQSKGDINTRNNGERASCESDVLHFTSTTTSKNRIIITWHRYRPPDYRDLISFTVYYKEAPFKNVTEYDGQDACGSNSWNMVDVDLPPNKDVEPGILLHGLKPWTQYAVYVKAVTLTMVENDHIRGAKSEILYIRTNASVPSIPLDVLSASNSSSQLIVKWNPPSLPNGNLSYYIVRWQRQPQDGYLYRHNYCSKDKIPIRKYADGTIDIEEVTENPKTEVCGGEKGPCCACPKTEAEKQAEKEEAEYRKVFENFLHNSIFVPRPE
Sequence (P08069 741-1367 limits assumed): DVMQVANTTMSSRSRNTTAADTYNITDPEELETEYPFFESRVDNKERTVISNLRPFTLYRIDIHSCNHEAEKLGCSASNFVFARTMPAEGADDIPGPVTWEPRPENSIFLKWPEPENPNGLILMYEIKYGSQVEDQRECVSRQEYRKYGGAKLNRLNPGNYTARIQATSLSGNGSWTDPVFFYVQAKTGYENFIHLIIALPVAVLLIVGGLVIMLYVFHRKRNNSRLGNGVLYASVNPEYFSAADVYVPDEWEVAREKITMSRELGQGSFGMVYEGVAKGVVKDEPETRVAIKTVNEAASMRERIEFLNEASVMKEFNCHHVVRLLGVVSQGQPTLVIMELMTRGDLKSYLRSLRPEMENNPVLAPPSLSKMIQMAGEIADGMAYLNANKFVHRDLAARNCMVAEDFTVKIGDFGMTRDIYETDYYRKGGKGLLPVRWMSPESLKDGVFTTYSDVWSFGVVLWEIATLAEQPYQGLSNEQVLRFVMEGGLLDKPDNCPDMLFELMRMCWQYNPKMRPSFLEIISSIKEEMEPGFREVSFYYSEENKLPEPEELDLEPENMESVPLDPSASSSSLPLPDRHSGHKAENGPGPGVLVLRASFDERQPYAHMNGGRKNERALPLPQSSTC
pIC50: −log10 of the molar value.
Recorded Metric: pIC50

Look at this compound and give its reported pIC50. `CN1CCN(c2ccc(OC(F)(F)F)c(Nc3nccc(-c4cc5c(n4C)CCNC5=O)n3)c2)CC1`
< 5.00

* * *

Below are pIC50 values recorded for Serine/threonine-protein kinase PLK1 (Homo sapiens, UniProt P53350).
Numbers only, as −log10 of the molar value.

1. Nc1nccc(-c2cc3c([nH]2)CCNC3=O)n1 ... 5.95
2. CN1CCN(c2ccc(OC(F)(F)F)c(Nc3nccc(-c4cc5c(n4C)CCN(C(=O)OC(C)(C)C)C5=O)n3)c2)CC1 ... 6.09

Item: `CN1CCN(c2ccc(OC(F)(F)F)c(Nc3nccc(-c4cc5c(n4CCO)CCNC5=O)n3)c2)CC1` Test system: Serine/threonine-protein kinase PLK1 (Homo sapiens, UniProt P53350) Read-out: pIC50 Value: ?
6.99

* * *

Target: Serine/threonine-protein kinase 26 (Homo sapiens, UniProt Q9P289)
Sequence (Q9P289 whole entry): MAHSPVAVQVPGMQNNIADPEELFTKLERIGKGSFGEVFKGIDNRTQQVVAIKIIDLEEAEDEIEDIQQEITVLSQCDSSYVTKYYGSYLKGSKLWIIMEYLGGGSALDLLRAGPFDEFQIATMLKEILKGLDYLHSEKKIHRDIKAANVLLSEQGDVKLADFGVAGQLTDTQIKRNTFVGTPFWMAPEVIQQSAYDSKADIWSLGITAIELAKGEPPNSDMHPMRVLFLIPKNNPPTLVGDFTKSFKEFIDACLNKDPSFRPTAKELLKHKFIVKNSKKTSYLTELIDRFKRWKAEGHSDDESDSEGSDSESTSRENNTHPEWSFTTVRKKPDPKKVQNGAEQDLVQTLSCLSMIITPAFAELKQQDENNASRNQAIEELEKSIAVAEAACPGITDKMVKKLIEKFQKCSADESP
Recorded Metric: IC50

Give the measured IC50 of `CN1CCN(c2ccc(OC(F)(F)F)c(Nc3nccc(-c4cc(C(N)=O)cn4C)n3)c2)CC1` .
> 10 µM

* * *

Biological target: Receptor-type tyrosine-protein kinase FLT3 (Homo sapiens)
Sequence (P36888 whole entry): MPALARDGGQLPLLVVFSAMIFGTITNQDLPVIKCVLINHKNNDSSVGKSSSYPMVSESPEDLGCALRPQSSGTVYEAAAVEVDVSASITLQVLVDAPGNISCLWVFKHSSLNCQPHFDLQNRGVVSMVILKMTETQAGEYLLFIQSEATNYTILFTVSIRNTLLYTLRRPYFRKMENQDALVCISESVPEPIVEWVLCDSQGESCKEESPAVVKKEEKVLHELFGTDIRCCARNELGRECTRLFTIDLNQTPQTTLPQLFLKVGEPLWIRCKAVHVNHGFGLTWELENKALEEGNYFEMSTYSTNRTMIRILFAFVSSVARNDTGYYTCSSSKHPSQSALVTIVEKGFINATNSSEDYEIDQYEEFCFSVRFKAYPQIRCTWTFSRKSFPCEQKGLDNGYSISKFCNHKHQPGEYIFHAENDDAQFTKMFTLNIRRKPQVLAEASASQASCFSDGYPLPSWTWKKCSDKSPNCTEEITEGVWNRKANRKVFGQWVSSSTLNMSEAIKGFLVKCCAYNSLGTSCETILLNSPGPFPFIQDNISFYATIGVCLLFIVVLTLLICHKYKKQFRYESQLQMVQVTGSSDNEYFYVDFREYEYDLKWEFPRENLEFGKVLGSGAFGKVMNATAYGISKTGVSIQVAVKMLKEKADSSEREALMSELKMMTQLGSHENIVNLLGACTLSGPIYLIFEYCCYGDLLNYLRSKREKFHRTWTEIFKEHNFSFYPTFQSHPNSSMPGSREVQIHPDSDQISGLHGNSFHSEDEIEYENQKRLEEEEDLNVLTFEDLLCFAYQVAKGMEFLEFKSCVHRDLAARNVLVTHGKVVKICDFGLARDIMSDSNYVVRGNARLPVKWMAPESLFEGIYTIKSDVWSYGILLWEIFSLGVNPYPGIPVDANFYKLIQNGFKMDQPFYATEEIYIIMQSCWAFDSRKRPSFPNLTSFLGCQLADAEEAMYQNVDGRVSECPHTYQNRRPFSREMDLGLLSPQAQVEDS
Recorded Metric: IC50 (nM)
Answers are plain numbers, in nM.

Please look up its IC50: `CN1CCN(c2ccc(OC(F)(F)F)c(Nc3nccc(-c4cc5c(n4C)CCNC5=O)n3)c2)CC1`
659

* * *

Assign half-life to each entry below.
Experiment: Terminal half life in Nu/Nu Balb Harlan mouse at 10 mg/kg, po
Type: ADME, organism-based
Set-up: dose 10 mg/kg, route oral
Conditions: in vivo, read-out: beta t1/2 (converted)
Answers are plain numbers, in h.

1. CN1CCN(c2ccc(OC(F)(F)F)c(Nc3nccc(-c4cc5c(n4C)CCNC5=O)n3)c2)CC1 ... 1.4

Attention now shifts to the item below.
Requested field: half-life. Item: `CN1CCN(c2ccc(OC(F)(F)F)c(Nc3nccc(-c4cc(C(N)=O)cn4C)n3)c2)CC1.O=C(O)C(F)(F)F`
1.7

* * *

Tested on: MOLM-13
Experiment: Antiproliferative activity against human MOLM13 cells
Format: functional, cell-based
Recorded Metric: IC50 (nM)
Numbers only, in nM.

1) CN1CCN(c2ccc(OC(F)(F)F)c(Nc3nccc(-c4cc5c(n4C)CCNC5=O)n3)c2)CC1 ... 21

We now examine a further molecule.
// query IC50 value for entry `CN1CCN(c2ccc(OC(F)(F)F)c(Nc3nccc(-c4cc(C(N)=O)cn4C)n3)c2)CC1`
201
